Every entry's value here was drawn from patent US20090239840A1.

# SYSTEM TESTED: muscarinic M2 receptor (Homo sapiens)
# Construct: expressed in transfected cells
# TEST PROTOCOL: R-SAT functional screen, M2
# Type: cell-based
# EXPERIMENTAL CONDITIONS: read-out: M2 eff (efficacy)
Field 'label' (enum: rule met / rule not met). Set to rule met when Emax is strictly under 20%; else rule not met.

Some entries whose results are on file:
>  <STRUCTURE AS SMILES>
Clc1ccc2c(c1)N=C(N1CCNCC1)c1cccnc1N2

>  <CLASS>
rule met

$$$$
>  <STRUCTURE AS SMILES>
c1ccc2c(c1)N=C(N1CCCNCC1)c1ccccc1N2

>  <CLASS>
rule not met

$$$$
>  <STRUCTURE AS SMILES>
Clc1ccc2c(c1)N=C(N1CCCNCC1)c1ccccc1N2

>  <CLASS>
rule not met

$$$$
>  <STRUCTURE AS SMILES>
Fc1ccc2c(c1)N=C(N1CCCNCC1)c1ccccc1N2

>  <CLASS>
rule not met

$$$$

Q: A record lists CN1CCCN(C2=Nc3cc(Cl)ccc3Nc3ccccc32)CC1 . Is its Emax below 20%?
A: rule not met

----------
Documented EC50 across a set of compounds
# SYSTEM TESTED: muscarinic M2 receptor (Homo sapiens, UniProt P08172)
# Construct: expressed in transfected cells
# TEST PROTOCOL: R-SAT functional screen, M2
# Type: cell-based
Write it as a number; the unit nM goes unstated.

>  <STRUCTURE AS SMILES>
CN1CCCN(C2=Nc3cc(Cl)ccc3Nc3ccccc32)CC1

>  <PROPERTY MEASURED>
EC50

>  <ENDPOINT RESULT>
1260

$$$$
>  <STRUCTURE AS SMILES>
Fc1ccc2c(c1)N=C(N1CCCNCC1)c1ccccc1N2

>  <PROPERTY MEASURED>
EC50

>  <ENDPOINT RESULT>
251

$$$$

Q: EC50 lookup needed for Clc1ccc2c(c1)N=C(N1CCCNCC1)c1ccccc1N2 , thanks.
A: 631

----------
# SYSTEM TESTED: muscarinic M2 receptor (Homo sapiens, UniProt P08172)
# Construct: expressed in transfected cells
# TEST PROTOCOL: R-SAT functional screen, M2
# Assay type: cell-based
# EXPERIMENTAL CONDITIONS: R-SAT; read-out: M2 eff (efficacy)
Outcome: MET for Emax of at least 50%; NOT MET for anything lower.

>  <STRUCTURE AS SMILES>
Cc1ccc2c(c1)N=C(N1CCNCC1)c1ccccc1N2

>  <CLASS>
MET

$$$$

Now consider a different molecule.
Q: Emax >= 50% for Clc1ccc2c(c1)N=C(c1cn[nH]c1)c1ccccc1N2 ?
A: NOT MET

----------
# SYSTEM TESTED: muscarinic M1 receptor (Homo sapiens, UniProt P11229)
# Construct: expressed in transfected cells
# Sequence (P11229 whole entry): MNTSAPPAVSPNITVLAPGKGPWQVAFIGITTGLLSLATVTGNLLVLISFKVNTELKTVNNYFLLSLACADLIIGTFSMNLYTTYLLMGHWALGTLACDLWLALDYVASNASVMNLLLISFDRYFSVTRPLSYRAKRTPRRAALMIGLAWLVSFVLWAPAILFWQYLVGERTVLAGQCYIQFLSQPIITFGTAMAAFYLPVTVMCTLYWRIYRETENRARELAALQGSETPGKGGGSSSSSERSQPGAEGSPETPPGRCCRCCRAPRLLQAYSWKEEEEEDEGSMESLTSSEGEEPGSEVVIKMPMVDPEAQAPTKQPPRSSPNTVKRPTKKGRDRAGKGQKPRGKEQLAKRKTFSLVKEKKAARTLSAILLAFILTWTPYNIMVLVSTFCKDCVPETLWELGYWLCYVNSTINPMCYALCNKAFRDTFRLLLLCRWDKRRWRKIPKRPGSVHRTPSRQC
# TEST PROTOCOL: R-SAT functional screen, M1
# Assay type: cell-based
# EXPERIMENTAL CONDITIONS: read-out: M1 eff (efficacy)
PROPERTY MEASURED: Emax
Param answer (str): number followed by unit.

>  <STRUCTURE AS SMILES>
Clc1ccc2c(c1)N=C(N1CCNCC1)c1cccnc1N2

>  <Emax>
51%

$$$$

With those in mind, consider the next compound.
Q: # get_value(readout= Emax, system= muscarinic M1 receptor (Homo sapiens, UniProt P11229)) for CN1CCCN(C2=Nc3cc(Cl)ccc3Nc3ccccc32)CC1
A: 18%

----------
# SYSTEM TESTED: muscarinic M2 receptor (Homo sapiens, UniProt P08172)
# Construct: expressed in transfected cells
# Sequence (P08172 1-466): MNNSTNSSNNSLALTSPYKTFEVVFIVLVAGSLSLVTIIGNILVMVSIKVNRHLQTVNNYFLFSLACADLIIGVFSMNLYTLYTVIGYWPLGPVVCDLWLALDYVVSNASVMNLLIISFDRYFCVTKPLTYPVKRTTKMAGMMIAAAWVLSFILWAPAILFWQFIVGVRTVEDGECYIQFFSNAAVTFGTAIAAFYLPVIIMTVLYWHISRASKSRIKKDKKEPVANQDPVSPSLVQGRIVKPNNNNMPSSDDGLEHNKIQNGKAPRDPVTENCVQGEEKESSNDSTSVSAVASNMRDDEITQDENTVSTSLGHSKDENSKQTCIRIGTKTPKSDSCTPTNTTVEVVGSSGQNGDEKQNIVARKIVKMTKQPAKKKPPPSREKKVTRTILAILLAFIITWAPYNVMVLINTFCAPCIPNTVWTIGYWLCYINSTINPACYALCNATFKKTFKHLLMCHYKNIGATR
# TEST PROTOCOL: R-SAT functional screen, M2
# Format: cell-based
# EXPERIMENTAL CONDITIONS: R-SAT; read-out: M2 pEC50 (converted)
This section presents molecules with their documented EC50 values.
Remember to follow the number with its unit.

A selection of reference data follows.
>  <MOLECULE>
Brc1ccc2c(c1)N=C(N1CCNCC1)c1ccccc1N2

>  <EC50>
0.501 µM

$$$$
>  <MOLECULE>
Brc1ccc2c(c1)N=C(N1CCNCC1)c1ccccc1O2

>  <EC50>
1.26 µM

$$$$
>  <MOLECULE>
NC1CCN(C2=Nc3cc(Cl)ccc3Nc3ccccc32)C1 (stereo not drawn)

>  <EC50>
3.16 µM

$$$$
>  <MOLECULE>
Clc1ccc2c(c1)N=C(N1CCNCC1)c1ccccc1C2

>  <EC50>
1.26 µM

$$$$
>  <MOLECULE>
Cc1ccc2c(c1)N=C(N1CCNCC1)c1ccccc1N2

>  <EC50>
1 µM

$$$$

Query molecule follows.
Q: State its EC50 on muscarinic M2 receptor (Homo sapiens, UniProt P08172): Clc1ccc2c(c1)N=C(N1CCNCC1)c1ccccc1O2
A: 1 µM

----------
# System: novel object recognition
# TEST PROTOCOL: Novel object recognition (NOR) assay
# Format: in vivo
# EXPERIMENTAL CONDITIONS: mice, dose approx. ID75 in MK-801 hyperactivity assay
PROPERTY MEASURED: NOR - 120 minutes post training

>  <COMPOUND>
CN1CCN(C2=Nc3cc(Cl)ccc3Nc3ccccc32)CC1 [Clozapine, clozapine, reference compound]

>  <NOR - 120 minutes post training>
not retained

$$$$
>  <COMPOUND>
Clc1ccc2c(c1)N=C(N1CCNCC1)c1ccccc1C2

>  <NOR - 120 minutes post training>
not retained

$$$$
>  <COMPOUND>
Cc1cccc2c1Oc1ccc(F)cc1N=C2N1CCNCC1

>  <NOR - 120 minutes post training>
retained

$$$$
>  <COMPOUND>
CN1c2ccc(Cl)cc2N=C(N2CCNCC2)c2ccccc21

>  <NOR - 120 minutes post training>
not retained

$$$$
>  <COMPOUND>
Cc1cccc2c1Oc1ccc(Cl)cc1N=C2N1CCNCC1

>  <NOR - 120 minutes post training>
retained

$$$$

# context switch: different compound, same NOR - 120 minutes post training
Q: Need NOR - 120 minutes post training of Clc1ccc2c(c1)N=C(N1CCNCC1)c1ccccc1N2 [N-desmethylclozapine, reference compound] , thanks.
A: not retained

----------
# SYSTEM TESTED: 5-HT2A receptor (Homo sapiens, UniProt P28223)
# Sequence (P28223 whole entry): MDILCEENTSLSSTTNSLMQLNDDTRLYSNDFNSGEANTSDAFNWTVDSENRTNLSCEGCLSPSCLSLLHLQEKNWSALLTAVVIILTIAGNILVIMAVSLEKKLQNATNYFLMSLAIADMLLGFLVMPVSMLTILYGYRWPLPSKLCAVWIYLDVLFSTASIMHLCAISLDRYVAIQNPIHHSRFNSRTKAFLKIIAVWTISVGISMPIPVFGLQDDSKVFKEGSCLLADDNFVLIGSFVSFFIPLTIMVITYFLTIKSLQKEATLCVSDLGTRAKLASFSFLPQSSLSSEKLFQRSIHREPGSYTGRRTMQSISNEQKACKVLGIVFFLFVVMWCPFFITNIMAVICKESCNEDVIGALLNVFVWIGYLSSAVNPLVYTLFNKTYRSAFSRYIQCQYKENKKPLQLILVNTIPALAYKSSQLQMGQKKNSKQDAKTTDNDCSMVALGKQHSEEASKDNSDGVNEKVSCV
# TEST PROTOCOL: Receptor profile, 5-HT2A inverse agonism
# Assay type: cell-based
# EXPERIMENTAL CONDITIONS: negative log of the inhibitory IC50 (inverse agonism); read-out: 5-HT2A pIEC50 (converted)
PROPERTY MEASURED: IC50 (µM)
Quick reminder: number only, in µM, skip the unit.

Solved entries (count: 2):
>  <STRUCTURE AS SMILES>
Clc1ccc2c(c1)N=C(N1CCNCC1)c1ccccc1C2

>  <PROPERTY MEASURED>
IC50

>  <ENDPOINT RESULT>
0.0316

$$$$
>  <STRUCTURE AS SMILES>
Cc1cccc2c1Oc1ccc(Cl)cc1N=C2N1CCNCC1

>  <PROPERTY MEASURED>
IC50

>  <ENDPOINT RESULT>
0.0316

$$$$

Q: Bench note: what IC50 did Brc1ccc2c(c1)N=C(N1CCNCC1)c1ccccc1O2 show?
A: 0.0251

Q: Sample Cc1cccc2c1Oc1ccc(C(F)(F)F)cc1N=C2N1CCNCC1 — what was its IC50?
A: 2.51

Q: What value of IC50 has been recorded for this entry: Cc1cccc2c1Oc1ccc(F)cc1N=C2N1CCNCC1
A: 0.126

Q: Which value of IC50 has been reported for Fc1ccc2c(c1)N=C(N1CCNCC1)c1ccccc1O2 in the records?
A: 0.501

----------
Parameter EC50: see the listing below.
# SYSTEM TESTED: muscarinic M2 receptor (Homo sapiens)
# Construct: expressed in transfected cells
# TEST PROTOCOL: R-SAT functional screen, M2
# Format: cell-based
# EXPERIMENTAL CONDITIONS: R-SAT; read-out: M2 pEC50 (converted)
Output should be the measured figure followed by the unit it is expressed in.

Use these answered entries as a reference point.
>  <STRUCTURE AS SMILES>
c1ccc2c(c1)N=C(N1CCNCC1)c1ccccc1O2

>  <EC50>
2000 nM

$$$$
>  <STRUCTURE AS SMILES>
NC1CCN(C2=Nc3cc(Cl)ccc3Nc3ccccc32)CC1

>  <EC50>
2510 nM

$$$$

Q: // query EC50 value for entry C=CCN1c2ccc(Cl)cc2N=C(N2CCNCC2)c2ccccc21
A: 1580 nM
